target: Thyrotropin-releasing hormone receptor (Homo sapiens) (UniProt P34981); assay: qHTS for Small Molecule Agonists and Allosteric Enhancers of Human TRH Receptor: Primary Screen for Enhancers; details: TRHR cells, fluo-8 calcium fluorescence, EC20 TRH enhancement; at 2 µM
Sequence (P34981 whole entry, looked up): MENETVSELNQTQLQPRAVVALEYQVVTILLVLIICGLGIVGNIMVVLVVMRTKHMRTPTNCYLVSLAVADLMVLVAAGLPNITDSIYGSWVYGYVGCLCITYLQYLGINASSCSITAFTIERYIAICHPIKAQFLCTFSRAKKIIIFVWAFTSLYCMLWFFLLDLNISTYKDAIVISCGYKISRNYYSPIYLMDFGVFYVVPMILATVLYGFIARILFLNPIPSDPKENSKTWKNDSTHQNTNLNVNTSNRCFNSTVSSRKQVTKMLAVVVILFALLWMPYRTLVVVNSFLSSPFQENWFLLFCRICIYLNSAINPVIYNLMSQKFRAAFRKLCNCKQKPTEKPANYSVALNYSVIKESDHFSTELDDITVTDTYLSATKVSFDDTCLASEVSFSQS
Hit rate of the full screen: of about 360,000 compounds, about 2,400 (0.67%) were called active. Cut-off read from the data, not from the text of the source: active = enhancement above about 30%; inactive = the rest. Many of the other results were omitted from the sample, so actives are more common in it than they were.
# output must be one of Yes for active, No for inactive

Inquiry: For this molecule, state the assay outcome: CCC(C)NC(=O)Cn1c(=O)n(-c2ccc(Cl)cc2)c(=O)c2c3c(sc21)CCCC3 (centres undefined)
Reply text: No

Inquiry: For COc1ccc2c(c1)C=C(C(=O)NCc1cc(Br)ccc1OC)CO2 , what call appears in the results of this test?
Reply text: No

Inquiry: Assay result, entry Cc1cccc(C(=O)NCc2nnc(SC(C)C(=O)Nc3nnc(C)s3)n2C)c1 (centres undefined) — outcome?
Reply text: Yes

Inquiry: Entry Cc1nn(Cc2ccccc2)c(C)c1C(=O)N1CCN(CC(=O)Nc2ccccc2Cl)CC1 : call = ?
Reply text: Yes

----------
target: Thyrotropin-releasing hormone receptor (Homo sapiens) (UniProt P34981); assay: qHTS for Small Molecule Agonists and Allosteric Enhancers of Human TRH Receptor: Primary Screen for Enhancers; settings: TRHR cells, fluo-8 calcium fluorescence, EC20 TRH enhancement; at 2 µM
About 2,400 (0.67%) of roughly 360,000 compounds were called active. No stated cut-off is given here; in the data, active means enhancement above about 30%; inactive means the rest. The full list was thinned out, with actives kept by preference.
Can you answer with just one of these options? TRUE for active, FALSE for inactive

COc1ccccc1C(=O)N(Cc1ccc(C)o1)C1CCS(=O)(=O)C1 (stereo unspecified)	FALSE
COc1ccc(OC)c(NC(=O)Cn2c(=O)n(Cc3ccccc3)c(=O)c3ccccc32)c1	FALSE
Cc1cccnc1CCNC(=O)C1CCC(=O)N(Cc2cccc(F)c2)C1 (stereo unspecified)	FALSE
COc1cc(C(=O)N(Cc2ccc(C(C)C)cc2)C2CCS(=O)(=O)C2)cc(OC)c1OC (stereo unspecified)	FALSE
O=C1C(F)N([S+](=O)([O-])c2ccc3c(c2)OCCO3)CCN1[S+](=O)([O-])c1c(F)cccc1F (stereo unspecified)	FALSE
CC1Cc2cc(S(=O)(=O)CCC(=O)NCc3ccc(Cl)cc3)ccc2N1C(=O)C1CC1 (stereo unspecified)	FALSE
O=c1cc(CSc2ncn[nH]2)[nH]c2ccc(F)cc12	FALSE
CCCOc1ccc(Cc2c(O)nc(SC)[nH]c2=O)cc1C	TRUE

Inquiry: Assay outcome for COc1ccc(S(=O)(=O)c2cn(C)c3cc(N4CCCCC4)c(F)cc3c2=O)cc1 : what was it?
Reply text: FALSE

Inquiry: Look up the recorded call for Cc1[nH]c2ccccc2c1C(=O)CN1CCCC(C)C1 (stereo unspecified) in this test.
Reply text: FALSE

Inquiry: Which outcome was entered for the compound Cc1cccc(NC(=O)c2nnn(CC(=O)Nc3ccc(C(C)C)cc3)c2N)c1C in this test?
Reply text: FALSE
